Test: Bioavailability (dose 15 mg/kg i.v. and 30 mg/kg p.o.)
Type: ADME, organism-based
Details: rat, in vivo, po
Could you please report measured bioavailability for the items listed next?
One number for each entry, in %.

Reference set, count: 6
> print(dat)
                  compound.structure.string   val
1  CCN(c1ncccc1NC(C)(C)C)C1CCN(C(=O)c2cc3cc(NC(=O)N4CCN(C)CC4)ccc3[nH]2)CC1  35.1
2  CCN(c1ncccc1NC(C)(C)C)C1CCN(C(=O)c2cc3cc(NS(=O)(=O)N4CCN(C)CC4)ccc3[nH]2)CC1    32
3  CCN(c1ncccc1NC(C)C)C1CCN(C(=O)c2cc3cc(NC(=O)N4CCN(C)CC4)ccc3[nH]2)CC1  21.3
4  CCN(c1nc(F)ccc1NC(C)(C)C)C1CCN(C(=O)c2cc3cc(NS(=O)(=O)N4CCN(C)CC4)ccc3[nH]2)CC1    54
5  CCNc1cccnc1N(CC)C1CCN(C(=O)c2cc3cc(NS(C)(=O)=O)ccc3[nH]2)CC1   2.8
6  CCN(c1ncccc1NC(C)C)C1CCN(C(=O)c2cc3cc(NS(=O)(=O)N4CCN(C)CC4)ccc3[nH]2)CC1     8

Problem: bioavailability lookup needed for CCN(c1nc(F)ccc1NC(C)(C)C)C1CCN(C(=O)c2cc3cc(NS(C)(=O)=O)ccc3[nH]2)CC1 , thanks.
Result: 17.1

----------
Biological target: Human immunodeficiency virus type 1 reverse transcriptase (Human immunodeficiency virus 1, UniProt Q72547, Y181C)
Readout: pIC50
One number for each entry, as −log10 of the molar value.

Reference set, count: 3
> print(dat)
                  compound.structure.string   val
1  CCN(c1nc(F)ccc1NC(C)C)C1CCN(C(=O)c2cc3cc(NS(C)(=O)=O)ccc3[nH]2)CC1  6.06
2  CC(C)Nc1cccnc1N(C)C1CCN(C(=O)c2cc3ccc(CO)cc3[nH]2)CC1  6.31
3  CN(c1nc(F)ccc1NC(C)(C)C)C1CCN(C(=O)c2cc3cc(NS(C)(=O)=O)ccc3[nH]2)CC1  6.14

Parameter requested: pIC50. Apply to each item below.
1. CCN(c1nc(Cl)ccc1NC(C)(C)C)C1CCN(C(=O)c2cc3cc(NS(C)(=O)=O)ccc3[nH]2)CC1
2. CN(c1ncccc1NC1CC1)C1CCN(C(=O)c2cc3cc(NS(C)(=O)=O)ccc3[nH]2)CC1
3. CCCN(c1ncccc1NC(C)(C)C)C1CCN(C(=O)c2cc3cc(NS(C)(=O)=O)ccc3[nH]2)CC1

Result:
5.52
6.55
5.61

Parameter requested: pIC50. Apply to each item below.
1. CCN(c1ncccc1NC(C)C)C1CCN(C(=O)c2cc3cc(NC(=O)N4CCN(C)CC4)ccc3[nH]2)CC1
2. CCNc1cccnc1N(CC)C1CCN(C(=O)c2cc3cc(NC(=O)N4CCN(C)CC4)ccc3[nH]2)CC1
3. CCNc1cccnc1N(C(C)C)C1CCN(C(=O)c2cc3cc(NS(C)(=O)=O)ccc3[nH]2)CC1
4. CCN(c1ncccc1NC(C)(C)C)C1CCN(C(=O)c2cc3cc(NC(=O)N4CCN(C)CC4)ccc3[nH]2)CC1

Result:
1. 6.39
2. 5.91
3. 5.44
4. 6.21

----------
Assay: Clearance at an iv dose of 15 mg/Kg and po dose of 30 mg/Kg
Type: ADME, organism-based
Details: rat, in vivo
Lab note: anything with clearance below 60 mL/min/kg is marked Criterion met; values at 60 mL/min/kg or higher are marked Criterion not met.

> print(dat)
                  compound.structure.string     classification
1  CCNc1cccnc1N(CC)C1CCN(C(=O)c2cc3cc(NS(C)(=O)=O)ccc3[nH]2)CC1  Criterion not met

Problem: State whether 60 mL/min/kg exceeds clearance recorded for CCN(c1nc(F)ccc1NC(C)(C)C)C1CCN(C(=O)c2cc3cc(NS(C)(=O)=O)ccc3[nH]2)CC1 .
Result: Criterion met

Problem: Do the same for CCN(c1ncccc1NC(C)C)C1CCN(C(=O)c2cc3cc(NS(=O)(=O)N4CCN(C)CC4)ccc3[nH]2)CC1 please
Result: Criterion not met

Problem: Do the same for CCN(c1ncccc1NC(C)C)C1CCN(C(=O)c2cc3cc(NC(=O)N4CCN(C)CC4)ccc3[nH]2)CC1 please
Result: Criterion met

Problem: Do the same for CCN(c1ncccc1NC(C)(C)C)C1CCN(C(=O)c2cc3cc(NS(=O)(=O)N4CCN(C)CC4)ccc3[nH]2)CC1 please
Result: Criterion not met

----------
Target: Human immunodeficiency virus type 1 reverse transcriptase (Human immunodeficiency virus 1, UniProt Q72547)
Could you please report measured IC50 for the items listed next?
Give bare numbers, in µM.

Reference set, count: 2
> print(dat)
                  compound.structure.string  result.units   val
1  CC(C)Nc1ccnnc1N(C)C1CCN(C(=O)c2cc3cc(NS(C)(=O)=O)ccc3[nH]2)CC1            µM  0.74
2  CN(c1ncccc1NCC1CC1)C1CCN(C(=O)c2cc3cc(NS(C)(=O)=O)ccc3[nH]2)CC1            µM  0.52

Next molecule, IC50 to be filled in.
Problem: IC50 lookup needed for CCCN(c1ncccc1NC(C)C)C1CCN(C(=O)c2cc3cc(NS(C)(=O)=O)ccc3[nH]2)CC1 , thanks.
Result: 0.24

----------
Biological target: Human immunodeficiency virus type 1 reverse transcriptase (Human immunodeficiency virus 1, UniProt Q72547, Y181C)
Readout: IC50 (nM)
Numbers only, in nM.

Reference set, count: 4
> print(dat)
                  compound.structure.string  readout   val
1  CCCN(c1ncccc1NC(C)C)C1CCN(C(=O)c2cc3cc(NC(=O)N4CCN(C)CC4)ccc3[nH]2)CC1     IC50   860
2  CCNc1cccnc1N(CC)C1CCN(C(=O)c2cc3cc(NS(=O)(=O)N4CCN(C)CC4)ccc3[nH]2)CC1     IC50  1110
3  CC(C)Nc1ccnnc1N(C)C1CCN(C(=O)c2cc3cc(NS(C)(=O)=O)ccc3[nH]2)CC1     IC50  1310
4  CCN(c1nc(F)ccc1NC(C)(C)C)C1CCN(C(=O)c2cc3cc(NS(C)(=O)=O)ccc3[nH]2)CC1     IC50  1060

Parameter requested: IC50. Apply to each item below.
1. CCN(c1ncccc1NC(C)C)C1CCN(C(=O)c2cc3cc(NS(=O)(=O)N4CCN(C)CC4)ccc3[nH]2)CC1
2. CC(C)Nc1cccnc1N(C)C1CCN(C(=O)c2cc3ccc(OCCOCCOCCO)cc3[nH]2)CC1
3. CCNc1cccnc1N(CC)C1CCN(C(=O)c2cc3cc(NS(C)(=O)=O)ccc3[nH]2)CC1
4. CCNc1cccnc1N(CC)C1CCN(C(=O)c2cc3cc(NS(=O)(=O)C(C)C)ccc3[nH]2)CC1

Result:
1. 770
2. 770
3. 880
4. 660

----------
Target: Human immunodeficiency virus type 1 reverse transcriptase (Human immunodeficiency virus 1, UniProt Q72547)
Readout: IC50 (nM)
Give bare numbers, in nM.

> print(dat)
                  compound.structure.string  val
1  CCN(c1nc(F)ccc1NC(C)C)C1CCN(C(=O)c2cc3cc(NS(C)(=O)=O)ccc3[nH]2)CC1  460
2  CCNc1cccnc1N(CC)C1CCN(C(=O)c2cc3cc(NS(C)(=O)=O)ccc3[nH]2)CC1  460

Parameter requested: IC50. Apply to each item below.
1. CCCN(c1ncccc1NC(C)C)C1CCN(C(=O)c2cc3cc(NC(=O)N4CCN(C)CC4)ccc3[nH]2)CC1
2. CCC(C)(C)Nc1cccnc1N(C)C1CCN(C(=O)c2cc3cc(NS(C)(=O)=O)ccc3[nH]2)CC1
3. CCNc1cccnc1N(C(C)C)C1CCN(C(=O)c2cc3cc(NS(C)(=O)=O)ccc3[nH]2)CC1
4. CC(C)Nc1ccc(Cl)nc1N(C)C1CCN(C(=O)c2cc3cc(NS(C)(=O)=O)ccc3[nH]2)CC1
5. CCNc1cccnc1N(CC)C1CCN(C(=O)c2cc3cc(NS(=O)(=O)CC)ccc3[nH]2)CC1
6. CCCN(c1ncccc1NCC)C1CCN(C(=O)c2cc3cc(NS(C)(=O)=O)ccc3[nH]2)CC1

Result:
1. 190
2. 350
3. 380
4. 360
5. 400
6. 150

----------
Molecular target: Human immunodeficiency virus type 1 reverse transcriptase (Human immunodeficiency virus 1, UniProt Q72547, Y181C)
pIC50: −log10 of the molar value.
Lab note: compare pIC50 against 6. Equal or greater, write rule met. Smaller, write rule not met.

> print(dat)
                  compound.structure.string  classification
1  CCN(c1ncccc1NC(C)(C)C)C1CCN(C(=O)c2cc3cc(NS(=O)(=O)N4CCN(C)CC4)ccc3[nH]2)CC1    rule not met
2  CNC(=O)Nc1ccc2[nH]c(C(=O)N3CCC(N(C)c4ncccc4NC(C)C)CC3)cc2c1    rule not met
3  CC(C)Nc1cccnc1N(C1CC1)C1CCN(C(=O)c2cc3ccccc3[nH]2)CC1    rule not met
4  CCNc1cccnc1N(CC)C1CCN(C(=O)c2cc3cc(NS(=O)(=O)CC)ccc3[nH]2)CC1        rule met

Continue with the compound presented below.
Problem: # bool: pIC50 of CCC(C)(C)Nc1cccnc1N(C)C1CCN(C(=O)c2cc3cc(NS(C)(=O)=O)ccc3[nH]2)CC1 >= 6
Result: rule met

Where these numbers come from: ChEMBL document CHEMBL1129647
